- study target: IRAK4 (Homo sapiens (Human))
- test protocol: IRAK4 Inhibition Assay
- Assay type: biochemical
- condition context: ATP 500 μM; IRAK4 0.6 nM; read-out: IRAK4 IC50
Each entry below lists one item and its recorded pIC50 value.
In simple prose, pIC50 is minus the logarithm base ten of a concentration in moles per litre.

Some compounds with known pIC50 results, for comparison:
CC(C)(O)[C@H](F)CNC(=O)c1cnc(-n2ncc3cc(C#N)cnc32)cc1NCCOC(F)F	7.78
CC(C)(O)[C@H](F)CNC(=O)c1cnc(-n2ncc3cc(C#N)cnc32)cc1N[C@H]1CCN(c2ncc(F)cn2)C1	7.99
CC(C)(O)[C@H](F)CNC(=O)c1cnc(-n2ncc3cc(C#N)c(N)nc32)cc1NC12CC(C1)C2	8.82
CC(C)(O)[C@H](F)CNC(=O)c1cnc(-n2ncc3cc(C#N)cnc32)cc1NC1CC(F)(F)C1	8.37
CC(C)(O)[C@H](F)CNC(=O)c1cnc(-n2ncc3cc(C#N)cnc32)cc1N[C@@H]1CCN(C(=O)c2ccc(F)cc2F)C1	8.02
CC(C)(CN)CNc1cc(-n2ncc3cc(C#N)cnc32)ncc1C(=O)NC[C@@H](F)C(C)(C)O	8.07
Cn1cc(Nc2cc(-n3ccc4cc(C#N)cnc43)ncc2C(=O)NC[C@@H](F)C(C)(C)O)cn1	8.89
CC(C)(O)[C@H](F)CNC(=O)c1cnc(-n2ncc3cc(F)cnc32)cc1NC1CCC(F)C1 (single isomer, unassigned) [Example 618]	8.24

Now examine the next entry.
### Prompt Identify the reported pIC50 for the following entry. CCCNC(=O)NCc1cnc2c(ccn2-c2cc(NC(C)C)c(C(=O)NC[C@@H](F)C(C)(C)O)cn2)c1
### Response 8.23

====

- Test system: TLR2 induced IL-6 in peripheral blood mononuclear cells (PBMCs)
- test protocol: PBMC TLR2 Induced IL-6 Assay
- Assay type: cell-based, human
- condition context: Homo sapiens, PBMC, PBMC TLR2 Induced IL-6 Assay; lipoteichoic acid stimulation, IL-6 by ELISA; read-out: Cell IC50
# if measured IC50 < 200 nM: 1.0  # else: 0.0

Answered cases to consult:
CC(C)Nc1cc(-n2cnc3cc(Cl)cnc32)ncc1C(=O)NC[C@@H](F)C(C)(C)O [Example 339]	0.0
CC(C)Nc1cc(-n2ncc3cc(C#N)cnc32)ncc1C(=O)NC1CCN(S(=O)(=O)NC(C)C)CC1 [Example 309]	0.0
CC(C)n1cc(Nc2cc(-n3ncc4cc(Cl)cnc43)ncc2C(=O)NC[C@@H](F)C(C)(C)O)cn1 [Example 358]	0.0

### Prompt Consider CC(C)Nc1cc(-n2ncc3cc(C#N)cnc32)ncc1C(=O)NCc1nc(Cc2ccccc2)no1 [Example 267] . Does its IC50 lie strictly below 200 nM?
### Response 0.0

### Prompt Does the reported IC50 of CC(C)Nc1cc(-n2ncc3cc(C#N)cnc32)ncc1C(=O)NCCC(C)(F)F [Example 332] stay below 200 nM?
### Response 1.0

### Prompt Please check: IC50 for CC(C)(O)[C@H](F)CNC(=O)c1cnc(-n2ncc3cc(C#N)cnc32)cc1Nc1cnn(C2COC2)c1 [Example 348] , strictly under 200 nM or not?
### Response 0.0

### Prompt Please determine if CC(C)Nc1cc(-n2ncc3cc(C#N)cnc32)ncc1C(=O)NC[C@@H](F)C(=O)N1CCOCC1 [Example 256] is below 200 nM in terms of IC50.
### Response 1.0

### Prompt Input CC(C)Nc1cc(-n2ncc3cc(C#N)cnc32)ncc1C(=O)NCC(F)=C1CCOCC1 [Example 294] ; condition: IC50 strictly below 200 nM. Does it hold?
### Response 0.0

### Prompt Determine if CC(C)(O)[C@H](F)CNC(=O)c1cnc(-n2cnc3cc(C#N)cnc32)cc1Nc1cnn(CC(F)F)c1 [Example 375] shows IC50 strictly lower than 200 nM.
### Response 1.0

### Prompt Does the reported IC50 of CC(C)(O)[C@H](F)CNC(=O)c1cnc(-n2cnc3cc(Cl)cnc32)cc1Nc1cnn(CC(F)(F)F)c1 [Example 360] stay below 200 nM?
### Response 0.0

### Prompt I wonder whether CCCn1cc(Nc2cc(-n3cnc4cc(Cl)cnc43)ncc2C(=O)NC[C@@H](F)C(C)(C)O)cn1 [Example 382] has IC50 below 200 nM. Can you tell?
### Response 0.0

====

- study target: IRAK4 (Homo sapiens (Human))
- test protocol: IRAK4 Inhibition Assay
- Assay type: biochemical
- condition context: ATP 500 μM; IRAK4 0.6 nM; read-out: IRAK4 IC50
measured property: IC50 (nM)
Express the result in nM but write the number alone.

### Prompt Read the entry CC(C)Nc1cc(-n2ccc3cc(CNC(=O)CC(C)(C)C)cnc32)ncc1C(=O)NC[C@@H](F)C(C)(C)O and write its reported IC50.
### Response 2.7

### Prompt Tell me measured IC50 for CC(C)Nc1cc(-n2ccc3cc(C#N)cnc32)ncc1C(=O)NC1CCN(S(C)(=O)=O)CC1 please.
### Response 5.3

### Prompt Quote IC50 reported for CC(C)(O)[C@H](F)CNC(=O)c1cnc(-n2ncc3cc(C#N)cnc32)cc1NC1CCC(F)(F)C1 (single isomer, unassigned) [Example 615] please.
### Response 2.3

====

- study target: IRAK4 (Homo sapiens (Human), UniProt Q9NWZ3)
- Sequence (Q9NWZ3 whole entry, species assumed): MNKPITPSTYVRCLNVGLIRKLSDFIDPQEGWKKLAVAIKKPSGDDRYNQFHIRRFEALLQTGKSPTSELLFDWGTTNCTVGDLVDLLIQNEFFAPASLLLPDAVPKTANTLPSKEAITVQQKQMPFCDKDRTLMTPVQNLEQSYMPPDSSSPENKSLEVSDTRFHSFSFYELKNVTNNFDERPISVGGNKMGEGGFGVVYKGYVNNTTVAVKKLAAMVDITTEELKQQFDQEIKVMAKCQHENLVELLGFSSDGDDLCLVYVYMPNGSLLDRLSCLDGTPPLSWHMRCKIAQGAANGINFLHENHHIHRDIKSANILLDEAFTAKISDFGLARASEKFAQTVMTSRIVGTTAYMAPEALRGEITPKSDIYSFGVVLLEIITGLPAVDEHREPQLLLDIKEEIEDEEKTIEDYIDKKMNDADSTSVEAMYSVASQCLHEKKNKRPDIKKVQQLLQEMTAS
- test protocol: IRAK4 Inhibition Assay
- Assay type: biochemical
- condition context: ATP 500 μM; IRAK4 0.6 nM; read-out: IRAK4 IC50
measured property: IC50

Example entries begin here.
CC(C)Nc1cc(-n2ccc3cc(C#N)cnc32)ncc1C(=O)NCC(=O)N1CCN(C)CC1 [Example 467]	2.3 nM
CC(C)(F)[C@H](F)CNC(=O)c1cnc(-n2cnc3cc(C#N)cnc32)cc1Nc1cnn(CC(F)F)c1 [Example 403]	2.5 nM
Cn1cc(Nc2cc(-n3ncc4cc(Cl)cnc43)ncc2C(=O)NC[C@@H](F)C(C)(C)O)cn1 [Example 398]	4.9 nM

Below: the item to evaluate.
### Prompt Fill in reported IC50 for this entry: CC(C)(F)[C@H](F)CNC(=O)c1cnc(-n2ccc3cc(C#N)cnc32)cc1Nc1cccc(O)c1 [Example 517]
### Response 1.2 nM

====

- Test system: TLR2 induced IL-6 in peripheral blood mononuclear cells (PBMCs)
- test protocol: PBMC TLR2 Induced IL-6 Assay
- Format: cell-based, human
- condition context: Homo sapiens, PBMC, human PBMCs, lipoteichoic acid stimulated, IL-6 by ELISA; read-out: Cell EC50
- Description: PBMC TLR2 Induced IL-6 Assay Peripheral blood mononuclear cells (PBMCs) were isolated from human blood containing the anti-coagulant EDTA (2.5 mM) by centrifugation over a FICOLL® gradient. PBMCs (250000 cells/well) were cultured in assay media (RPMI with 10% heat inactivated FCS) with compounds for 30 minutes at 37° C. in a 5% CO2 incubator. Following pretreatment with compounds, cells were stimulated for 5 hours with 10 µg/ml lipoteichoic acid (Invivogen, San Diego, Calif.), a TLR2 agonist. […]
Cut-off 90 nM on EC50: below means fulfilled, at or above means not fulfilled.

Answered examples (5):
CC(C)(C)OC(=O)N1CC(Nc2cc(-n3ccc4cc(C#N)cnc43)ncc2C(=O)NC[C@@H](F)C(C)(C)O)C1 [Example 457]	not fulfilled
CC(C)(O)[C@H](F)CNC(=O)c1cnc(-n2ccc3cc(C#N)cnc32)cc1Nc1ccc2nn[nH]c2c1 [Example 436]	not fulfilled
COC(=O)N1CC[C@@H](Nc2cc(-n3ccc4cc(C#N)cnc43)ncc2C(=O)NC[C@@H](F)C(C)(C)O)C1 [Example 474]	fulfilled
CC(C)(O)[C@H](F)CNC(=O)c1cnc(-n2ncc3cc(C#N)cnc32)cc1NC12CCC(O)(CC1)C2 [Example 613]	not fulfilled
CC(C)(O)[C@H](F)CNC(=O)c1cnc(-n2ccc3cc(C#N)cnc32)cc1NC1CN(c2ncc(F)cn2)C1 [Example 472]	fulfilled

### Prompt Is EC50 of COC(=O)N1CC(Nc2cc(-n3ccc4cc(C#N)cnc43)ncc2C(=O)NC[C@@H](F)C(C)(C)O)C1 [Example 481] strictly below 90 nM?
### Response fulfilled

====

- Tested on: TLR2 induced IL-6 in peripheral blood mononuclear cells (PBMCs)
- test protocol: PBMC TLR2 Induced IL-6 Assay
- Format: cell-based, human
- condition context: Homo sapiens, PBMC, human PBMCs, lipoteichoic acid stimulated, IL-6 by ELISA; read-out: Cell EC50
# reported pEC50; entries follow
Value format note: pEC50 is -log10 of concentration (mol/L); just state the number.

Example compounds with recorded pEC50:
CC(C)(O)[C@H](F)CNC(=O)c1cnc(-n2ccc3cc(C#N)cnc32)cc1Nc1ccc(-n2ccnc2)cc1 [Example 471]	6.71
CC(C)(O)[C@H](F)CNC(=O)c1cnc(-n2ccc3cc(C#N)cnc32)cc1NCCN1CCOCC1 [Example 480]	6.77
CC(C)(O)[C@H](F)CNC(=O)c1cnc(-n2ncc3cc(C#N)cnc32)cc1NCCC(F)(F)F [Example 563]	6.80
COc1cnc(NC(=O)c2cnc(-n3ncc4cc(C#N)cnc43)cc2NC(C)C)cn1 [Example 564]	6.18
CC(C)(O)[C@H](F)CNC(=O)c1cnc(-n2ccc3cc(C#N)cnc32)cc1NC1COC1 [Example 437]	7.38
CC(C)(O)[C@H](F)CNC(=O)c1cnc(-n2ccc3cc(C#N)cnc32)cc1N[C@@H]1CCN(c2ncc(F)cn2)C1 [Example 449]	7.09
CC(C)(O)[C@H](F)CNC(=O)c1cnc(-n2ncc3cc(C#N)cnc32)cc1Nc1cnn(-c2ncc(F)cn2)c1 [Example 411]	7.29
CC(C)(O)[C@H](F)CNC(=O)c1cnc(-n2ccc3cc(C#N)cnc32)cc1NC1CCC(NCC(F)(F)F)C1 (stereo partly shown) [Example 488]	6.68
CC(C)(O)[C@H](F)CNC(=O)c1cnc(-n2ncc3cc(C#N)cnc32)cc1N[C@H]1CC[C@](C)(O)CC1 [Example 608]	6.50
CC(C)(O)[C@H](F)CNC(=O)c1cnc(-n2ncc3cc(C#N)cnc32)cc1N[C@H]1CCN(c2ncc(F)cn2)C1 [Example 533]	6.71

### Prompt Give recorded pEC50. CC(C)(O)[C@H](F)CNC(=O)c1cnc(-n2ccc3cc(C#N)cnc32)cc1N[C@@H]1CCOC1 [Example 440]
### Response 7.14

### Prompt Provide only the value of recorded pEC50 for CC(C)(O)[C@H](F)CNC(=O)c1cnc(-n2ccc3cc(C#N)cnc32)cc1N[C@@H]1CCN(S(C)(=O)=O)C1 [Example 465]
### Response 8.15

### Prompt Read the entry CCNc1cc(-n2ncc3cc(C#N)cnc32)ncc1C(=O)NC[C@@H](F)C(C)(C)O [Example 568] and write its reported pEC50.
### Response 6.18

Source of measurements: patent US9169252B2
